target: MAGL (Mus musculus, UniProt O35678); construct: Proteomes (mouse brain membrane fraction or cell lysates); from tissue; host or cells: mouse brain membrane fraction (or cell lysates, not specified); experiment: In vitro competitive activity-based protein profiling (gel-based, FP-Rh or HT-01 probe); assay type: biochemical; conditions: 1 μM inhibitor
Sequence (O35678 whole entry): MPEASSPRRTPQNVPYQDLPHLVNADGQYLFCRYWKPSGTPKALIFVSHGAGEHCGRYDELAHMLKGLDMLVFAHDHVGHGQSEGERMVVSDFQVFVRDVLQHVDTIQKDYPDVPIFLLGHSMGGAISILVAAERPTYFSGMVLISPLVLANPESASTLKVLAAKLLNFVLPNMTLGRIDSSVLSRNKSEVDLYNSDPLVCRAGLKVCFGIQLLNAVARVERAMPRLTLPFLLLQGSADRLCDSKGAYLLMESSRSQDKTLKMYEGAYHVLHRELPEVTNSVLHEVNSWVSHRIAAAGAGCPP
Some molecules, each annotated with its measured inhibition at 1 µM.
measured_quantity: inhibition at 1 µM

>>> df
                                    molecule  reported_result
 0  N#Cc1cnn(C(=O)NCCCCCc2ccccc2)c1 [Example 39]            < 25%
 1  O=C(N1CCN(Cc2ccc(N3CCOCC3)cc2)CC1)n1cc(Cl)cn1 [Example 217]            > 75%
 2  CCN(Cc1ccccc1Cl)C(=O)n1cc(Cl)cn1 [Example 130]            < 25%
 3  O=C(N1CCN(Cc2ccccc2)CC1)n1cc(Cl)cn1 [Example 186]            > 75%
 4  O=C(N1CCCCC1)n1cccn1 [Example 1, Piperidin-1-yl(1H-pyrazol-1-yl)methanone]            < 25%
 5  Cc1cc(N2CCN(C(=O)n3cc(-c4ccccc4)cn3)CC2)c2ccccc2n1 [Example 207]        25 to 75%
 6  CN1CCN(C(=O)n2cc(C#N)cn2)CC1 [Example 175]        25 to 75%
 7  O=C(N1CCN(Cc2ccc(CN3CCOCC3)cc2)CC1)n1cc(Cl)cn1 [Example 214]            > 75%
 8  CNC(=O)c1cnn(C(=O)N2CCN(Cc3ccc(Cl)cc3)CC2)c1 [Example 223]            > 75%
 9  O=C(N1CCN(Cc2c(N3CCCC3)cccc2C(F)(F)F)CC1)n1cc(Cl)cn1 [Example 99]            > 75%
10  O=C(N1CCN(Cc2ccc(-c3ccccc3)cc2Cl)CC1)n1cc(Cl)cn1 [Example 139]            > 75%
11  COc1ccccc1N1CCN(C(=O)n2cc(C(F)(F)F)cn2)CC1 [Example 233]            > 75%
12  CCN(Cc1ccc(Cl)cc1)C(=O)n1cc(Cl)cn1 [Example 131]            < 25%
13  CC(C)(C)OC(=O)N1CCCN(C(=O)n2cccn2)CC1 [Example 25]            < 25%
14  CN(Cc1cccc(-c2ccncc2)c1)C(=O)n1cc(-c2ccccc2)cn1 [Example 219]            > 75%
15  Cc1cc(-c2ccccc2)ccc1CN1CCN(C(=O)n2cc(-c3ccccc3)cn2)CC1 [Example 65]            < 25%
16  Cc1cnn(C(=O)N2CCN(C(=O)c3ccccc3)CC2)c1 [Example 164]            < 25%
17  N#Cc1cnn(C(=O)N2CCN(Cc3ccccc3)CC2)c1 [Example 9]            > 75%
18  O=C(N1CCN(C(c2ccc(Cl)cc2)c2ccc(Cl)cc2)CC1)n1cc(C(F)(F)F)cn1 [Example 118]            > 75%

----------
target: FAAH (Mus musculus, UniProt O08914); construct: Proteomes (mouse brain membrane fraction or cell lysates); from tissue; host or cells: mouse brain membrane fraction (or cell lysates, not specified); experiment: In vitro competitive activity-based protein profiling (gel-based, FP-Rh or HT-01 probe); assay type: biochemical; details: 1 μM inhibitor; gel-based competitive ABPP; read-out: % Inhibition at 1 μM, B = FAAH
Sequence (O08914 whole entry): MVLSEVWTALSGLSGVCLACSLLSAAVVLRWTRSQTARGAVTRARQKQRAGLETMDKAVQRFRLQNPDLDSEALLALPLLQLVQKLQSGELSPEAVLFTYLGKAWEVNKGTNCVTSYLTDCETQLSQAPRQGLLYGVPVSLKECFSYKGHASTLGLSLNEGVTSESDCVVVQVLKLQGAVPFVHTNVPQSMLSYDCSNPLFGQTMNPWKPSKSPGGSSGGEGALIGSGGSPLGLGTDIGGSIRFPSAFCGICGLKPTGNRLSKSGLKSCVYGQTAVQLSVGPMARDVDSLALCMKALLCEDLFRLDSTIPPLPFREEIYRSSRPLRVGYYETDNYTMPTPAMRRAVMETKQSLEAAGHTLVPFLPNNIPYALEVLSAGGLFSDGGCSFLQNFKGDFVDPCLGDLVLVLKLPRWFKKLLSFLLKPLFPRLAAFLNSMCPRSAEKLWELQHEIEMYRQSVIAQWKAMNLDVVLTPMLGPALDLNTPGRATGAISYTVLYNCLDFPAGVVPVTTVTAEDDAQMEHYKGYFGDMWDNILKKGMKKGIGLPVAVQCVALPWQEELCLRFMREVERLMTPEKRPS
Some compounds, each annotated with its measured inhibition at 1 µM.
measured_quantity: inhibition at 1 µM

                            compound_smiles   measured_quantity  reported_result
0  N#Cc1cnn(C(=O)N2CCN(Cc3ccc(C(=O)N4CCC4)cc3Cl)CC2)c1  inhibition at 1 µM            > 75%
1  O=C(c1cnn(C(=O)N2CCN(Cc3ccc(-c4ccccc4)cc3OCc3ccccc3)CC2)c1)N1CCCC1  inhibition at 1 µM            > 75%
2                N#Cc1cnn(C(=O)N2CCCCCC2)c1  inhibition at 1 µM            > 75%
3  O=C(O)c1cnn(C(=O)N2CCN(Cc3ccc(Cl)cc3)CC2)c1  inhibition at 1 µM        25 to 75%
4  CCN(Cc1cccc(OC)c1)C(=O)n1cc(C(F)(F)F)cn1  inhibition at 1 µM            > 75%
5  O=C(N1CCN(Cc2cccc(C(F)(F)F)c2)CC1)n1cc(C(F)(F)F)cn1  inhibition at 1 µM            > 75%
6  CCN(Cc1cccc(N2CCOCC2)c1)C(=O)n1cc(C(F)(F)F)cn1  inhibition at 1 µM            > 75%
7  CCN(Cc1ccc(Cl)cc1)C(=O)n1cc(C(F)(F)F)cn1  inhibition at 1 µM            > 75%
8         CCN(Cc1ccc(Cl)cc1)C(=O)n1cc(C)cn1  inhibition at 1 µM            < 25%
